- target or system: human TLR4 (Homo sapiens, UniProt O00206+Q9Y6Y9)
- Sequence (O00206 24-839): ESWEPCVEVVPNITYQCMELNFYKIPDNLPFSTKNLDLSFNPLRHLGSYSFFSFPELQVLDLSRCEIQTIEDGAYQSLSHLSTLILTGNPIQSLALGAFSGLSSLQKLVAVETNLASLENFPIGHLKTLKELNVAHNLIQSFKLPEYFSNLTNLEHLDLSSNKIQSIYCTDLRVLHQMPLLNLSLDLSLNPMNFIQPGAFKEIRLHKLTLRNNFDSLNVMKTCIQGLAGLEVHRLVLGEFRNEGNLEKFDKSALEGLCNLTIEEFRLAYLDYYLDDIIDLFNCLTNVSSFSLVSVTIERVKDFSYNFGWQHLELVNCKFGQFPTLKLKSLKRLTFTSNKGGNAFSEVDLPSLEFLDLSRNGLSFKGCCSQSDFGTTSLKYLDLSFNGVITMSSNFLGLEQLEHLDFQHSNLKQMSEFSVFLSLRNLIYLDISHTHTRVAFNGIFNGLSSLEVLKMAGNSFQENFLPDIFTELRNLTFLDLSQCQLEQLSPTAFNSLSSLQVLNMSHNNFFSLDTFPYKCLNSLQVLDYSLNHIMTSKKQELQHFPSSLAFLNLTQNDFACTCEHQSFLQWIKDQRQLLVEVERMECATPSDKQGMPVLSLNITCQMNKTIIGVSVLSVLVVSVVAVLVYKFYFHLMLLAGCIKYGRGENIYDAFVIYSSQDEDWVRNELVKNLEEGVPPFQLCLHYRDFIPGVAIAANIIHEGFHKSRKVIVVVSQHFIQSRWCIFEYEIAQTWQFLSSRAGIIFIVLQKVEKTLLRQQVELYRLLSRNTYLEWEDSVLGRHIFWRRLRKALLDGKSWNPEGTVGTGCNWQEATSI
- Sequence (Q9Y6Y9 17-160 limits assumed): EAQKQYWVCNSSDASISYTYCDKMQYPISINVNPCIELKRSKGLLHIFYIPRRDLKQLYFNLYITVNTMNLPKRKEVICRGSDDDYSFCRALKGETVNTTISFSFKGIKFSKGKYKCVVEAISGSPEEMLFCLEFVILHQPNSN
- assay info: Human TLR4 activating effect (HEK-Blue Human TLR4 Cells, SEAP reporter)
- Type: cell-based
- test parameters: 24 hours, SEAP Protein concentration, read-out: EC50 (ng/ml) (converted)
assay endpoint: EC50 (nM)
Answers are plain numbers, in nM.

>  <compound>
CCCCCCCCCCC[C@H](CC(=O)NC1C(CC[C@H](NC(=O)C[C@@H](CCCCCCCCCCC)OC(=O)CCCCCCCCC)C(=O)O)OC(COC2(C(=O)O)CC(OC3(C(=O)O)CC(O)C(O)C([C@H](O)CO)O3)C(O)C([C@H](O)CO)O2)C(OP(=O)(O)O)C1OC(=O)C[C@@H](CCCCCCCCCCC)OC(=O)CCCCCCCCC)OC(=O)CCCCCCCCC (some centres unmarked) [Example 15(15d)]

>  <target or system>
human TLR4 (Homo sapiens, UniProt O00206+Q9Y6Y9)

>  <EC50 (nM)>
0.4

$$$$

Please look at the following compound next.
-- ask Fill blank: measured EC50 of the compound CCCCCCCCCCC[C@H](CC(=O)NC1C(CC[C@H](NC(=O)C[C@@H](CCCCCCCCCCC)OCCCCCCCCCC)C(=O)O)OC(CO)C(OP(=O)(O)O)C1OC(=O)C[C@@H](CCCCCCCCCCC)OCCCCCCCCCC)OCCCCCCCCCC (some centres unmarked) [Example 17(17h)] is ____.
-- reply 0.969
